system: SW-620; experiment: Cytotoxicity against Homo sapiens (human) SW620 assessed as cell growth at 10 uM after 48 hr by SRB assay relative to control; type: functional; conditions: SW-620, 48 h, read-out: Activity
readout label: growth at 10 µM (%)
Answers are plain numbers, in %.

# annotated cases, reported growth at 10 µM shown
CNc1nnc(-c2sc3nnc(-c4ccccc4)c(-c4ccccc4)c3c2O)s1; 105
CC(=O)Oc1c(C2=NN(C(C)=O)C(c3ccc(F)cc3)O2)sc2nnc(-c3ccccc3)c(-c3ccccc3)c12 (stereo unspecified); 97.4
Oc1c(-c2n[nH]c(=S)o2)sc2nnc(-c3ccccc3)c(-c3ccccc3)c12; 124
CC(=O)Oc1c(C2=NN(C(C)=O)C(c3ccccc3[N+](=O)[O-])O2)sc2nnc(-c3ccccc3)c(-c3ccccc3)c12 (stereo unspecified); 82.8
CSc1nnc(-c2sc3nnc(-c4ccccc4)c(-c4ccccc4)c3c2O)o1; 92.5
Oc1c(-c2nnc(SCc3ccccc3)o2)sc2nnc(-c3ccccc3)c(-c3ccccc3)c12; 109
CCOC(=O)c1c(Nc2ccc(S(=O)(=O)Nc3nccs3)cc2)nnc(-c2ccccc2)c1-c1ccccc1; 131
CC1=NN(C(=O)c2sc3nnc(-c4ccccc4)c(-c4ccccc4)c3c2O)C(=O)C1; 79.4

Provide growth at 10 µM values for the following items, in order.
1. CCOC(=O)c1c(Nc2ccc(S(N)(=O)=O)cc2)nnc(-c2ccccc2)c1-c1ccccc1
2. Oc1c(-c2nnc(-c3ccccc3)o2)sc2nnc(-c3ccccc3)c(-c3ccccc3)c12
3. Oc1c(-c2nnc(-c3ccc(Cl)cc3)o2)sc2nnc(-c3ccccc3)c(-c3ccccc3)c12

Response:
1: 105; 2: 64.4; 3: 35.6

---

assay: Cytotoxicity against Homo sapiens (human) NCI-ADR-RES assessed as cell growth at 10 uM after 48 hr by SRB assay relative to control; assay type: functional; details: read-out: Activity
I'd be grateful if you could share measured growth at 10 µM for these entries.
Numbers only, in %.

Provide growth at 10 µM values for the following items, in order.
1. Oc1c(-c2nnc(-c3ccc(Cl)cc3)o2)sc2nnc(-c3ccccc3)c(-c3ccccc3)c12
2. Oc1c(-c2nnc(-c3ccccc3)o2)sc2nnc(-c3ccccc3)c(-c3ccccc3)c12
3. CSc1nnc(-c2sc3nnc(-c4ccccc4)c(-c4ccccc4)c3c2O)o1
4. CC1=NN(C(=O)c2sc3nnc(-c4ccccc4)c(-c4ccccc4)c3c2O)C(=O)C1
5. CC(=O)Oc1c(C2=NN(C(C)=O)C(c3ccccc3[N+](=O)[O-])O2)sc2nnc(-c3ccccc3)c(-c3ccccc3)c12 (centres undefined)
6. CC(=O)Oc1c(C2=NN(C(C)=O)C(c3ccc(F)cc3)O2)sc2nnc(-c3ccccc3)c(-c3ccccc3)c12 (centres undefined)
7. Oc1c(-c2nnc(SCc3ccccc3)o2)sc2nnc(-c3ccccc3)c(-c3ccccc3)c12

Response:
15.5
18.8
85.5
16
98.4
85.3
93.5

Provide growth at 10 µM values for the following items, in order.
1. CCOC(=O)c1c(Nc2ccc(S(N)(=O)=O)cc2)nnc(-c2ccccc2)c1-c1ccccc1
2. CNc1nnc(-c2sc3nnc(-c4ccccc4)c(-c4ccccc4)c3c2O)s1

Response:
1. 96.8
2. 105

---

system: A549; assay: Cytotoxicity against Homo sapiens (human) A549 assessed as cell growth at 10 uM after 48 hr by SRB assay relative to control; type: functional; settings: A549, 48 h, read-out: Activity
readout label: growth at 10 µM (%)
Answers are plain numbers, in %.

Provide growth at 10 µM values for the following items, in order.
1. CCOC(=O)c1c(Nc2ccc(S(=O)(=O)Nc3nccs3)cc2)nnc(-c2ccccc2)c1-c1ccccc1
2. CC(=O)Oc1c(C2=NN(C(C)=O)C(c3ccccc3[N+](=O)[O-])O2)sc2nnc(-c3ccccc3)c(-c3ccccc3)c12 (configuration not stated)
3. CSc1nnc(-c2sc3nnc(-c4ccccc4)c(-c4ccccc4)c3c2O)o1
4. CCOC(=O)c1c(Nc2ccc(S(N)(=O)=O)cc2)nnc(-c2ccccc2)c1-c1ccccc1
5. Oc1c(-c2n[nH]c(=S)o2)sc2nnc(-c3ccccc3)c(-c3ccccc3)c12
6. Oc1c(-c2nnc(-c3ccc(Cl)cc3)o2)sc2nnc(-c3ccccc3)c(-c3ccccc3)c12

Response:
[110, 103, 80.5, 90.9, 107, 51.2]

Query: // returns reported growth at 10 µM for input `CC1=NN(C(=O)c2sc3nnc(-c4ccccc4)c(-c4ccccc4)c3c2O)C(=O)C1`
Response: 84.5

---

system: SF-539; assay: Cytotoxicity against Homo sapiens (human) SF539 assessed as cell growth at 10 uM after 48 hr by SRB assay relative to control; type: functional; details: SF-539, 48 h, read-out: Activity
I'd be grateful if you could share measured growth at 10 µM for these entries.
Answers are plain numbers, in %.

CSc1nnc(-c2sc3nnc(-c4ccccc4)c(-c4ccccc4)c3c2O)o1; 84.6

Provide growth at 10 µM values for the following items, in order.
1. Oc1c(-c2nnc(-c3ccccc3)o2)sc2nnc(-c3ccccc3)c(-c3ccccc3)c12
2. Oc1c(-c2nnc(-c3ccc(Cl)cc3)o2)sc2nnc(-c3ccccc3)c(-c3ccccc3)c12
3. CCOC(=O)c1c(Nc2ccc(S(N)(=O)=O)cc2)nnc(-c2ccccc2)c1-c1ccccc1

Response:
1: 68.5; 2: 55; 3: 108

Provide growth at 10 µM values for the following items, in order.
1. CCOC(=O)c1c(Nc2ccc(S(=O)(=O)Nc3nccs3)cc2)nnc(-c2ccccc2)c1-c1ccccc1
2. Oc1c(-c2n[nH]c(=S)o2)sc2nnc(-c3ccccc3)c(-c3ccccc3)c12

Response:
117
106

Provide growth at 10 µM values for the following items, in order.
1. CNc1nnc(-c2sc3nnc(-c4ccccc4)c(-c4ccccc4)c3c2O)s1
2. Oc1c(-c2nnc(SCc3ccccc3)o2)sc2nnc(-c3ccccc3)c(-c3ccccc3)c12
3. CC(=O)Oc1c(C2=NN(C(C)=O)C(c3ccccc3[N+](=O)[O-])O2)sc2nnc(-c3ccccc3)c(-c3ccccc3)c12 (stereo unspecified)
4. CC(=O)Oc1c(C2=NN(C(C)=O)C(c3ccc(F)cc3)O2)sc2nnc(-c3ccccc3)c(-c3ccccc3)c12 (stereo unspecified)

Response:
1: 109; 2: 122; 3: 107; 4: 104

Query: // returns reported growth at 10 µM for input `CC1=NN(C(=O)c2sc3nnc(-c4ccccc4)c(-c4ccccc4)c3c2O)C(=O)C1`
Response: 109

---

test system: OVCAR-3; test: Cytotoxicity against Homo sapiens (human) OVCAR3 assessed as cell growth at 10 uM after 48 hr by SRB assay relative to control; assay type: functional; conditions: OVCAR-3, 48 h, read-out: Activity
I'd be grateful if you could share measured growth at 10 µM for these entries.
Numbers only, in %.

# annotated cases, reported growth at 10 µM shown
CCOC(=O)c1c(Nc2ccc(S(N)(=O)=O)cc2)nnc(-c2ccccc2)c1-c1ccccc1; 118
CNc1nnc(-c2sc3nnc(-c4ccccc4)c(-c4ccccc4)c3c2O)s1; 116
Oc1c(-c2nnc(-c3ccccc3)o2)sc2nnc(-c3ccccc3)c(-c3ccccc3)c12; 72.4
Oc1c(-c2nnc(SCc3ccccc3)o2)sc2nnc(-c3ccccc3)c(-c3ccccc3)c12; 126
CC1=NN(C(=O)c2sc3nnc(-c4ccccc4)c(-c4ccccc4)c3c2O)C(=O)C1; 84.7

Provide growth at 10 µM values for the following items, in order.
1. Oc1c(-c2n[nH]c(=S)o2)sc2nnc(-c3ccccc3)c(-c3ccccc3)c12
2. CC(=O)Oc1c(C2=NN(C(C)=O)C(c3ccccc3[N+](=O)[O-])O2)sc2nnc(-c3ccccc3)c(-c3ccccc3)c12 (stereo unspecified)
3. Oc1c(-c2nnc(-c3ccc(Cl)cc3)o2)sc2nnc(-c3ccccc3)c(-c3ccccc3)c12

Response:
[115, 93.4, 26]

Provide growth at 10 µM values for the following items, in order.
1. CC(=O)Oc1c(C2=NN(C(C)=O)C(c3ccc(F)cc3)O2)sc2nnc(-c3ccccc3)c(-c3ccccc3)c12 (stereo unspecified)
2. CSc1nnc(-c2sc3nnc(-c4ccccc4)c(-c4ccccc4)c3c2O)o1

Response:
96.3
86.8

Query: Query for OVCAR-3: what growth at 10 µM does the record show for `CCOC(=O)c1c(Nc2ccc(S(=O)(=O)Nc3nccs3)cc2)nnc(-c2ccccc2)c1-c1ccccc1` ?
Response: 120

---

system: KM12; test: Cytotoxicity against Homo sapiens (human) KM12 assessed as cell growth at 10 uM after 48 hr by SRB assay relative to control; type: functional; conditions: KM12, 48 h, read-out: Activity
I'd be grateful if you could share measured growth at 10 µM for these entries.
Answers are plain numbers, in %.

# annotated cases, reported growth at 10 µM shown
CC(=O)Oc1c(C2=NN(C(C)=O)C(c3ccc(F)cc3)O2)sc2nnc(-c3ccccc3)c(-c3ccccc3)c12 (stereo unspecified); 81.7
Oc1c(-c2nnc(-c3ccc(Cl)cc3)o2)sc2nnc(-c3ccccc3)c(-c3ccccc3)c12; 39.2

Provide growth at 10 µM values for the following items, in order.
1. Oc1c(-c2nnc(-c3ccccc3)o2)sc2nnc(-c3ccccc3)c(-c3ccccc3)c12
2. CCOC(=O)c1c(Nc2ccc(S(N)(=O)=O)cc2)nnc(-c2ccccc2)c1-c1ccccc1
3. Oc1c(-c2n[nH]c(=S)o2)sc2nnc(-c3ccccc3)c(-c3ccccc3)c12
4. CC1=NN(C(=O)c2sc3nnc(-c4ccccc4)c(-c4ccccc4)c3c2O)C(=O)C1
5. CSc1nnc(-c2sc3nnc(-c4ccccc4)c(-c4ccccc4)c3c2O)o1
6. CCOC(=O)c1c(Nc2ccc(S(=O)(=O)Nc3nccs3)cc2)nnc(-c2ccccc2)c1-c1ccccc1
7. Oc1c(-c2nnc(SCc3ccccc3)o2)sc2nnc(-c3ccccc3)c(-c3ccccc3)c12
8. CC(=O)Oc1c(C2=NN(C(C)=O)C(c3ccccc3[N+](=O)[O-])O2)sc2nnc(-c3ccccc3)c(-c3ccccc3)c12 (stereo unspecified)

Response:
1: 72.3; 2: 104; 3: 119; 4: 71.3; 5: 72.9; 6: 114; 7: 107; 8: 108

Query: // returns reported growth at 10 µM for input `CNc1nnc(-c2sc3nnc(-c4ccccc4)c(-c4ccccc4)c3c2O)s1`
Response: 126
